TEST NAME: CEETOX_H295R_CORTISOL: CeeTox H295R High-throughput Steroidogenesis Assay for Cortisol (AID 2283438);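 also: cortisol secreted into medium quantified by LC-MS/MS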
COND: actives raise or lower the signal
The source made the active and inactive calls. The calls were made as follows: active = hit-call score of the fitted dose curve at least 0.9, where 1 is the maximum; inactive = score below 0.9.
I would appreciate it if you answered using one of these outcomes: y = active, n = inactive

As a guide, the following entries are already answered.
CN(C)c1ccc2nc3ccc(=[N+](C)C)cc-3sc2c1 : n
COc1ccc(C(=O)c2ccccc2)c(O)c1 : n
C=CC(=O)OCCCCCCOC(=O)C=C : n
CC(C)(C)NC(=O)[C@H]1CC[C@H]2[C@@H]3CC[C@H]4NC(=O)C=C[C@]4(C)[C@H]3CC[C@]12C : y
CCN1CN(CC)CN(CC)C1 : n
CCOC(=O)C1=NN(c2ccc(Cl)cc2Cl)C(C)(C(=O)OCC)C1 (configuration not stated) : n

Continue with the next compound.
Any idea what this test logged for C=C[C@@]1(C)CC(=O)[C@]2(O)[C@@]3(C)[C@@H](O)CCC(C)(C)[C@@H]3[C@H](O)[C@H](OC(C)=O)[C@@]2(C)O1 ?
y
